target: T1, 4Ig-B7H3 (human, UniProt Q5ZPR3 27-461, limits assumed)
T1 construct: also called 4Ig-B73H3
T1 sequence (looked up): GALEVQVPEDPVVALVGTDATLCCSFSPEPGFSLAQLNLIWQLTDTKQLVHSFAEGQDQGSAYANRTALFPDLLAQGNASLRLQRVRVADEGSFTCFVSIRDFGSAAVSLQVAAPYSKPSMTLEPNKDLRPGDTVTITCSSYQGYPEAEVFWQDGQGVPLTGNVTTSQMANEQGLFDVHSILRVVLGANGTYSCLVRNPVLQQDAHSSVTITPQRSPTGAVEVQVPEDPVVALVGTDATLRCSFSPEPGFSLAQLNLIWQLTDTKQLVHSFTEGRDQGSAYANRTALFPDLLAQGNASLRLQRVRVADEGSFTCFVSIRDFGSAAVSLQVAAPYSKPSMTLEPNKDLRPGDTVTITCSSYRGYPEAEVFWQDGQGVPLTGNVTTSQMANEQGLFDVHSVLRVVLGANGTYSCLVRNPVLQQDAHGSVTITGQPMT
protocol_description: SPR, IgG on 4Ig-B7-H3 without Fc fusion
The entries below come with measured kon values attached.
readout_name: kon (M⁻¹ s⁻¹)

• murine 8H9 (m8H9) IgG1 monoclonal antibody (antibody, V domains shown, 131I-labelled in the LAN-1 immunoreactivity assay; the label is not carried by the letters., also called MAb 8H9) VH: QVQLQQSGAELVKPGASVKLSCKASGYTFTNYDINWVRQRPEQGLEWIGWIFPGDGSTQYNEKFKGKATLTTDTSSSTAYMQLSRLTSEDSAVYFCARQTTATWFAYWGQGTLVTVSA VL: DIVMTQSPATLSVTPGDRVSLSCRASQSISDYLHWYQQKSHESPRLLIKYASQSISGIPSRFSGSGSGSDFTLSINSVEPEDVGVYYCQNGHSFPLTFGAGTKLELK = 18500
• hu8H9 H3L3 IgG1 (antibody, V domains shown) VH: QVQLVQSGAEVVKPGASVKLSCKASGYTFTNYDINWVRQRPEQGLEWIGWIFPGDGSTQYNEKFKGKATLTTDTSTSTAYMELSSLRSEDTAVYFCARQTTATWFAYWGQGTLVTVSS VL: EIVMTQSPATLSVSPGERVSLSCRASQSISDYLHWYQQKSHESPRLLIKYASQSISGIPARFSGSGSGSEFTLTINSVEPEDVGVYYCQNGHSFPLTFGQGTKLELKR = 20500
• ch8H9 6.1 IgG (ch8H9 + 6 affinity maturation mutations) (antibody, V domains shown) VH: QVQLQQSGAELVKPGASVKLSCKTSGYTFTNYDINWVRQRPGQGLEWIGWIFPGDDSTQYNEKFKGKATLTTDTSSSTAYMQLSRLTSEDSAVYFCARQTTGTWFAYWGQGTLVTVSA VL: DIVMTQSPATLSVTPGDRVTLSCRASQSISDYLYWYQQKSHESPRLLIKYASQSISGIPSRFSGSGSGSDFTLSINSVEPEDVGVYYCQNGHSFPLTFGAGTKLELKR = 33500
• hu8H9 3.1 IgG1 (antibody, V domains shown, also called clone 3.1) VH: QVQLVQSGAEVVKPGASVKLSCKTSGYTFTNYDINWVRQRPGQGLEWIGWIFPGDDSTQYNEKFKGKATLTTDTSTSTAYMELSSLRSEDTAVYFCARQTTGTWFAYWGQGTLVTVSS VL: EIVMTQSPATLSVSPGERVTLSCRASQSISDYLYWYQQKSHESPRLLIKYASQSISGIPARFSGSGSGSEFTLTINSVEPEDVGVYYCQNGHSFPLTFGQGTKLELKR = 23400
• mouse/human chimeric 8H9 (ch8H9) IgG1 (antibody, V domains shown) VH: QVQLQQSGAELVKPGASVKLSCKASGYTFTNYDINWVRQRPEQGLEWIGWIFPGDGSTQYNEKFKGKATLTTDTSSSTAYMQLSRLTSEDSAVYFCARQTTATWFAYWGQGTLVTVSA VL: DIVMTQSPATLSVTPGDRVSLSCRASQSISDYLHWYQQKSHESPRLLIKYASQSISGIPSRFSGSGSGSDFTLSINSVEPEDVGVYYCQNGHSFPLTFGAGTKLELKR = 28300

Origin of the recorded values: patent US20170240637A1
